- Assay target: T1, SARS-CoV-2 Spike Glycoprotein S1 (subunit 1) (SARS-CoV-2, UniProt P0DTC2 16-685)
- T1 construct: also called S1 Monomer; SARS-CoV-2 S1
- Test method notes: screening phage ELISA, mean
Recorded measurements of ELISA (Avg), one per entry

Binder	ELISA (Avg)
1-17 (antibody, V domains shown) VH: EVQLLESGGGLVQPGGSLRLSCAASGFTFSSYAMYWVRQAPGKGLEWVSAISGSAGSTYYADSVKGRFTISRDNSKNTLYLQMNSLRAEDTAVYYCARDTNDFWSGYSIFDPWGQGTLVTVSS VL: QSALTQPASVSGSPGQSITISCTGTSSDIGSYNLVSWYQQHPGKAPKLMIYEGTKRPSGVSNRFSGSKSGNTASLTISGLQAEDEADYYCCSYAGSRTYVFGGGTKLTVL	27.4
1-53 (antibody, V domains shown) VH: EVQLLESGGGLVQPGGSLRLSCAASGFTFSSYTMSWVRQAPGKGLEWVSVISGSGGSTYYADSVKGRFTISRDNSKNTLYLQMNSLRAEDTAVYYCAREGYRDYLWYFDLWGQGTLVTVSS VL: QSALTQPASVSGSPGQSITISCTGTSTDVGSYNLVSWYQQHPGKAPKLMIYEGTKRPSGVSNRFSGSKSGNTASLTISGLQAEDEADYYCCSYAGSYTSVVFGGGTKLTVL	21.7
1-30 (antibody, V domains shown) VH: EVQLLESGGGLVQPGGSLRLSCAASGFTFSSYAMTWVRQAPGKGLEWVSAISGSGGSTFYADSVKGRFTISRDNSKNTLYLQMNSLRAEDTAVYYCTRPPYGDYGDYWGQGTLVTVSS VL: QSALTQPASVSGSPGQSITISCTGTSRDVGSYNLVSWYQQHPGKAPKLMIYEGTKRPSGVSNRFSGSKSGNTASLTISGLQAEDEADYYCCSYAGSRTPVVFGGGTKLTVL	29.5
1-51 (antibody, V domains shown) VH: EVQLLESGGGLVQPGGSLRLSCAASGFTFSSYAMSWVRQAPGKGLEWVSVISGSGGSTYYADSVKGRFTISRDNSKNTLYLQMNSLRAEDTAVYYCAREGYRDYLWYFDLWGQGTLVTVSS VL: QSALTQPASVSGSPGQSITISCTGTSSDVGSYDLVSWYQQHPGKAPKLMIYEGNKRPSGVSNRFSGSKSGNTASLTISGLQAEDEADYYCCSYAGSSVVFGGGTKLTVL	7.1
1-27 (antibody, V domains shown) VH: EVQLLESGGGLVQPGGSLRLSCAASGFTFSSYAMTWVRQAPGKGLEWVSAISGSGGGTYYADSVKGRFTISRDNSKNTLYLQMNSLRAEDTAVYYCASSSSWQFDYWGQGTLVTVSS VL: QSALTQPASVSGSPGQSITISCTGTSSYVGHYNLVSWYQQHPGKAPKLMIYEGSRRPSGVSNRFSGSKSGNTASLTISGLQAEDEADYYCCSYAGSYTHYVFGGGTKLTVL	27.2
